read-out: Epidermal growth factor receptor (EGFR), EGFR (gene 1956); assay: BSK_hDFCGF_EGFR: BioMAP Diversity Plus: hDFCGF Assay for Epidermal growth factor receptor (EGFR) Biomarker Activity (AID 2283057); details: primary human foreskin fibroblasts; actives raise or lower the signal
Active and inactive are the calls of the source. Rule for the calls: active = hit-call score of the fitted dose curve at least 0.9, where 1 is the maximum; inactive = score below 0.9.
Assign a class; possible classes are 1 = active, 0 = inactive

Recorded test call requested for `C#C[C@]1(O)CC[C@H]2[C@@H]3CCC4=Cc5oncc5C[C@]4(C)[C@H]3CC[C@@]21C`
0

Recorded test call requested for BrC1CCC(Br)C(Br)CCC(Br)C(Br)CCC1Br (configuration not stated)
0

Recorded test call requested for `CCCCC/C=C/C=C/C=O`
0

Recorded test call requested for `COc1cc(C=O)ccc1OC(=O)C(C)C`
0

Recorded test call requested for O=C=NC1CCC(CC2CCC(N=C=O)CC2)CC1 (configuration not stated)
0

Recorded test call requested for CC(=O)OCCC(C)CC(C)(C)C (configuration not stated)
0

Recorded test call requested for `CC(=O)O[C@]1(C(C)=O)CC[C@H]2[C@@H]3C[C@H](C)C4=CC(=O)CC[C@]4(C)[C@H]3CC[C@@]21C`
0

Recorded test call requested for `CCC(=O)OCc1ccccc1`
0

Recorded test call requested for `CNC[C@H](O)c1cccc(O)c1`
0

Recorded test call requested for `CC(C)(COC(=O)c1ccccc1)COC(=O)c1ccccc1`
0

Recorded test call requested for `C=CCOC(=O)CCC1CCCCC1`
0

Recorded test call requested for `O=C1OC2(c3cc(Br)c(O)c(Br)c3Oc3c2cc(Br)c(O)c3Br)c2c(Cl)c(Cl)c(Cl)c(Cl)c21`
1

Recorded test call requested for `Nc1cc([N+](=O)[O-])ccc1Cl`
0

Recorded test call requested for `Cc1ccc(Nc2ccc(O)c3c2C(=O)c2ccccc2C3=O)cc1`
0

Recorded test call requested for `N#Cc1ccc(CC(=NNC(=O)Nc2ccc(OC(F)(F)F)cc2)c2cccc(C(F)(F)F)c2)cc1`
0

Recorded test call requested for `CCCCCCCCCC=O`
0

Recorded test call requested for CN(CCOc1ccc(CC2SC(=O)NC2=O)cc1)c1ccccn1 (configuration not stated)
0

Recorded test call requested for `CC(=O)Nc1ccccc1O`
0

Recorded test call requested for `CCCCCCCCC=O`
0

Recorded test call requested for `O=C1CCCCCCCCCCCCCCO1`
0

Recorded test call requested for `c1ccc2sc(SN(C3CCCCC3)C3CCCCC3)nc2c1`
0

Recorded test call requested for `C=C(C)C(=O)O[C@H]1C[C@@H]2CC[C@@]1(C)C2(C)C`
1
